Hey, just so you know, these numbers are from patent US20100298141A1.

Test system: wild oat
Assay: Test C pre-/postemergence test
Assay type: in vivo, Avena fatua
Conditions: preemergence, 250 g ai/ha; scale 0 (no effect) to 100 (complete control)
Text: Seeds of plant species selected from blackgrass (Alopecurus myosuroides), downy brome (Bromus tectorum), green foxtail (Setaria viridis), Italian ryegrass (Lolium multiflorum), wheat (Triticum aestivum), wild oat (Avena fatua), catchweed bedstraw (Galium aparine), Russian thistle (Salsola kali), […] […]
Parameter: Oat, Wild plant response rating. Scope: all listed entries.
Lab note: jot down the number only; don't add units.

Sample answers from the record:
{"columns": ["COMPOUND", "Oat, Wild plant response rating"],
 "data": [
  ["Cn1nc(C(F)(F)F)c(C[S+]([O-])c2ccc(Cl)c[n+]2[O-])c1OCC(F)(F)F (racemic)", 100],
  ["CCc1cc[n+]([O-])c(S(=O)(=O)Cc2c(C(F)(F)F)nn(C)c2OC(F)F)c1", 95],
  ["Cc1cc([S+]([O-])Cc2c(C(F)(F)F)nn(C)c2OCC(F)(F)F)[n+]([O-])cc1Cl (stereo not shown)", 100],
  ["Cn1nc(OC(F)F)c(CS(=O)(=O)c2cccc[n+]2[O-])c1C(F)(F)F", 100],
  ["[O-][n+]1cc(Cl)ccc1[S+]([O-])Cc1c(C(F)(F)F)nn(CC(F)(F)F)c1Cl (stereo not shown)", 95],
  ["Cn1nc(C(F)(F)C(F)(F)F)c(C[S+]([O-])c2ccc(Cl)c[n+]2[O-])c1OCC(F)(F)F (stereo not shown)", 100]
]}

Exercise: Identify measured Oat, Wild plant response rating corresponding to CCn1nc(C(F)(F)F)c(C[S+]([O-])c2cccc[n+]2[O-])c1OCC(F)(F)F (racemic)
Key: 100

====

tested on: rice; assay: Test C flooded paddy test; type: in vivo, Oryza sativa; settings: Flood, 250 g ai/ha; scale 0 to 100, 0 no effect, 100 complete control; 13 to 15 days
EXPERIMENTAL_READOUT: Plant response rating, Rice
Lab note: jot down the number only; don't add units.

{"columns": ["COMPOUND", "MEASUREMENT_TARGET", "EXPERIMENTAL_READOUT", "RESULT_NUMBER"],
 "data": [
  ["CCc1cc[n+]([O-])c(S(=O)(=O)Cc2c(C(F)(F)F)nn(C)c2OC(F)F)c1", "rice", "Plant response rating, Rice", 20],
  ["CCn1nc(C(F)(F)F)c(C[S+]([O-])c2cccc[n+]2[O-])c1OCC(F)(F)F (racemic)", "rice", "Plant response rating, Rice", 45],
  ["CCn1nc(C(F)(F)F)c(C(C)S(=O)(=O)c2cccc[n+]2[O-])c1OCC(F)(F)F (stereo not shown)", "rice", "Plant response rating, Rice", 70]
]}

# ---- query compound ----
Exercise: Report its Plant response rating, Rice with rice as the test system: CC(Oc1c(CS(=O)(=O)c2ccc(Cl)c[n+]2[O-])c(C(F)(F)F)nn1C)C(F)(F)F (stereo not shown)
Key: 20

====

tested on: wheat; experiment: Test C pre-/postemergence test; format: in vivo, Triticum aestivum; settings: preemergence, 250 g ai/ha; scale 0 (no effect) to 100 (complete control)
EXPERIMENTAL_READOUT: Wheat plant response rating
Lab note: jot down the number only; don't add units.

Sample answers from the record:
{"columns": ["COMPOUND", "EXPERIMENTAL_READOUT", "RESULT_NUMBER"],
 "data": [
  ["Cn1nc(C(F)(F)F)c(C(Cl)S(=O)(=O)c2cccc[n+]2[O-])c1OCC(F)(F)F (racemic)", "Wheat plant response rating", 15],
  ["Cn1nc(C(F)(F)F)c(C[S+]([O-])c2ccc(F)c[n+]2[O-])c1OC(F)F (stereo not shown)", "Wheat plant response rating", 90],
  ["Cn1nc(C(F)(F)F)c(C[S+]([O-])c2ccc(F)c[n+]2[O-])c1OCC(F)(F)F (stereo not shown)", "Wheat plant response rating", 100],
  ["CC(Oc1c(C[S+]([O-])c2cccc[n+]2[O-])c(C(F)(F)F)nn1C)C(F)(F)F (stereo not shown)", "Wheat plant response rating", 95],
  ["C#CCOc1c(CS(=O)(=O)c2cccc[n+]2[O-])c(C(F)(F)F)nn1C", "Wheat plant response rating", 98],
  ["Cn1nc(C(F)(F)C(F)(F)F)c(C[S+]([O-])c2ccc(Cl)c[n+]2[O-])c1OCC(F)(F)F (stereo not shown)", "Wheat plant response rating", 95]
]}

Exercise: Identify measured Wheat plant response rating corresponding to CCn1nc(C(F)(F)F)c(C[S+]([O-])c2cc(C)cc[n+]2[O-])c1OCC(F)(F)F (racemic)
Key: 100

====

test system: giant foxtail; experiment: Test C pre-/postemergence test; assay type: in vivo, Setaria faberii; settings: 62 g ai/ha, Preemergence; scale 0 to 100
Parameter: Foxtail, Giant plant response rating. Scope: all listed entries.
Lab note: jot down the number only; don't add units.

{"columns": ["COMPOUND", "MEASUREMENT_TARGET", "Foxtail, Giant plant response rating"],
 "data": [
  ["Cn1nc(C(F)(F)F)c(C[S+]([O-])c2cc(C(C)(C)C)cc[n+]2[O-])c1OC(F)F (racemic) [Compound 24]", "giant foxtail", 90],
  ["Cn1nc(C(F)(F)F)c(C(Cl)S(=O)(=O)c2cccc[n+]2[O-])c1OC(F)F (stereo not drawn) [Compound 51]", "giant foxtail", 50]
]}

# ---- query compound ----
Exercise: Identify measured Foxtail, Giant plant response rating corresponding to Cc1cc[n+]([O-])c(S(=O)(=O)C(Cl)c2c(C(F)(F)F)nn(C)c2Cl)c1 (racemic) [Compound 22]
Key: 80

====

Parameter: Nutsedge, Yellow plant response rating. Scope: all listed entries.
test system: yellow nutsedge; test: Test C pre-/postemergence test; assay type: in vivo, Cyperus esculentus; details: 125 g ai/ha, preemergence; scale 0 (no effect) to 100 (complete control)
Lab note: jot down the number only; don't add units.

Sample answers from the record:
{"columns": ["COMPOUND", "Nutsedge, Yellow plant response rating"],
 "data": [
  ["CC(c1c(C(F)(F)F)nn(CC(F)(F)F)c1Cl)[S+]([O-])c1cccc[n+]1[O-] (stereo not drawn)", 65],
  ["Cn1nc(C(F)(F)C(F)(F)F)c(C[S+]([O-])c2cccc[n+]2[O-])c1OCC(F)(F)F (stereo not drawn)", 90]
]}

# ---- query compound ----
Exercise: Identify measured Nutsedge, Yellow plant response rating corresponding to Cn1nc(C(F)(F)F)c(C(Cl)S(=O)(=O)c2cccc[n+]2[O-])c1OC(F)F (stereo not drawn)
Key: 40

====

Test system: common ragweed
Test: Test C pre-/postemergence test
Format: in vivo, Ambrosia elation
Conditions: 62 g ai/ha, Preemergence; scale 0 to 100
Source text: Seeds of plant species selected from blackgrass (Alopecurus myosuroides), downy brome (Bromus tectorum), green foxtail (Setaria viridis), Italian ryegrass (Lolium multiflorum), wheat (Triticum aestivum), wild oat (Avena fatua), catchweed bedstraw (Galium aparine), Russian thistle (Salsola kali), […] […]
Label 1.0 when Ragweed plant response rating is at or above 50; otherwise label 0.0.

{"columns": ["COMPOUND", "LABEL_VALUE"],
 "data": [
  ["CCc1cc[n+]([O-])c(S(=O)(=O)Cc2c(C(F)(F)F)nn(C)c2OC(F)F)c1 [Compound 102]", 1.0],
  ["Cc1cc[n+]([O-])c(S(=O)(=O)Cc2c(C(F)(F)F)nn(C)c2OCC(F)(F)F)c1 [Compound 31]", 0.0],
  ["Cc1cc[n+]([O-])c(S(=O)(=O)Cc2c(C(F)(F)C(F)(F)F)nn(C)c2OCC(F)(F)F)c1 [Compound 99]", 1.0]
]}

Exercise: Does the compound CC(c1c(C(F)(F)F)nn(CC(F)(F)F)c1Cl)[S+]([O-])c1cccc[n+]1[O-] (stereo not drawn) [Compound 46] have recorded Ragweed plant response rating that is 50 or more?
Key: 0.0

Exercise: Does the compound CCn1nc(C(F)(F)F)c(CS(=O)(=O)c2cccc[n+]2[O-])c1OCC(F)(F)F [Compound 63] have recorded Ragweed plant response rating that is 50 or more?
Key: 1.0

Exercise: Does the compound Cn1nc(C(F)(F)F)c(C(Cl)S(=O)(=O)c2cccc[n+]2[O-])c1OC(F)F (stereo not drawn) [Compound 51] have recorded Ragweed plant response rating that is 50 or more?
Key: 0.0

Exercise: Does the compound Cn1nc(C(F)(F)F)c(C[S+]([O-])c2cccc[n+]2[O-])c1OCC(F)(F)F (racemic) [Compound 28] have recorded Ragweed plant response rating that is 50 or more?
Key: 1.0

Exercise: Does the compound Cn1nc(C(F)(F)F)c(C[S+]([O-])c2ccc(F)c[n+]2[O-])c1Cl (stereo not drawn) [Compound 54] have recorded Ragweed plant response rating that is 50 or more?
Key: 0.0

Exercise: Does the compound Cn1nc(C(F)(F)F)c(C[S+]([O-])c2ccc(F)c[n+]2[O-])c1OC(F)F (stereo not drawn) [Compound 58] have recorded Ragweed plant response rating that is 50 or more?
Key: 0.0
